# key: entry, value: melting point
Structures can show the parent of a compound that is named as a salt.

Take a look at these entries with their results.
CCc1nn(-c2ccccn2)c2[nH]c3cc(F)c(F)cc3c(=O)c12 [Example 2-201]; 247 to 248 °C
Cc1ccc2nc3c(c(C)nn3-c3ccccn3)c(N)c2c1.Cl; 287 to 290 °C

INPUT: Please report the recorded melting point for Cc1nn(-c2ncccn2)c2nc3ccccc3c(N)c12 (as salt: hydrochloride) [Example 1-65] .
OUTPUT: 287 to 290 °C

INPUT: Please report the recorded melting point for Cc1cccc2c(=O)c3c(C)nn(-c4ccccn4)c3[nH]c12 [Example 2-38] .
OUTPUT: 241 to 243 °C

INPUT: Please report the recorded melting point for Cc1nn(-c2ccncc2)c2nc3ccccc3c(N(C)C)c12 [Example 2-142] .
OUTPUT: 155 to 156 °C

INPUT: Please report the recorded melting point for Cc1nn(-c2ccccn2)c2[nH]c3ccccc3c(=S)c12 [Example 1-42] .
OUTPUT: 252 to 253 °C

INPUT: Please report the recorded melting point for COc1cccc2c(N)c3c(C)nn(-c4ccccn4)c3nc12.Cl .
OUTPUT: 248 to 251 °C

INPUT: Please report the recorded melting point for CC(C)c1nn(-c2ccccn2)c2nc3ccccc3c(Cl)c12 [Example 2-172] .
OUTPUT: 146 to 148 °C

INPUT: Please report the recorded melting point for Fc1ccc2nc3c(cnn3-c3ccccn3)c(Cl)c2c1 [Example 2-164] .
OUTPUT: 176 to 179 °C
